Target chain: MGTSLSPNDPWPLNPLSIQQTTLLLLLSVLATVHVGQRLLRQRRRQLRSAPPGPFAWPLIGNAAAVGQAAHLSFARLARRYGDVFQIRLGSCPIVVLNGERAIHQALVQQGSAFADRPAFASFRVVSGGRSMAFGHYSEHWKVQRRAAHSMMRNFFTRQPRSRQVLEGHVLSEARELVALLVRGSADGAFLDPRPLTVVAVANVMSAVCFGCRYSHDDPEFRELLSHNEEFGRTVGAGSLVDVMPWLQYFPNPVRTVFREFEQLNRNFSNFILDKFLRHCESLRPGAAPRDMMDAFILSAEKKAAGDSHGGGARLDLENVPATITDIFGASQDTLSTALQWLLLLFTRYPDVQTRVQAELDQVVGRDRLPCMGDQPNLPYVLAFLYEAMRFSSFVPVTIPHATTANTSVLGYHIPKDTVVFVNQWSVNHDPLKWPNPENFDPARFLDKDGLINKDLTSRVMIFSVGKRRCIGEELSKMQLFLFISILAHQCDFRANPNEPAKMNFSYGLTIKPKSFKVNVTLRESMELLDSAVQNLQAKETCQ
endpoint-label: IC50 (nM)

{"columns": ["line-notation", "val"],
 "data": [
  ["COc1ccc(OC)c2c1c(OC)cc1c(=O)c(O)c(-c3cccc(F)c3)oc12", 0.3],
  ["COc1ccc(OC)c2c1c(OC)cc1c(=O)c(O)c(-c3ccc(Cl)cc3)oc12", 5],
  ["COc1ccc(OC)c2c1c(OC)cc1c(=O)cc(-c3ccccc3F)oc12", 0.2],
  ["COc1ccc(OC)c2c1c(OC)cc1c(=O)cc(-c3ccccc3Cl)oc12", 1.1],
  ["COc1ccc(-c2cc(=O)c3cc(OC)c4c(OC)ccc(OC)c4c3o2)cc1OC", 2.5],
  ["COc1ccc(OC)c2c1c(OC)cc1c(=O)c(OCCCCCCCCOC(=O)CN)c(-c3cccc(F)c3)oc12", 12.3],
  ["COc1ccc(OC)c2c1c(OC)cc1c(=O)cc(-c3ccc(F)cc3)oc12", 0.3],
  ["COc1ccc(OC)c2c1c(OC)cc1c(=O)c(OCCCCCCOC(=O)CN)c(-c3cccc(F)c3)oc12", 68.8],
  ["COc1ccc(OC)c2c1c(OC)cc1c(=O)c(O)c(-c3ccccc3Cl)oc12", 1.6],
  ["COc1ccc(OC)c2c1c(OC)cc1c(=O)cc(-c3ccccc3)oc12", 0.2]
]}
